biological target: HIV-1 nucleocapsid protein NC (wild type) (HIV-1 pNL4-3, UniProt P12493 378-432); assay: competition
pIC50: −log10 of the molar value.

binder | pIC50
TGTGTGTG (ssDNA) [(TG)4] | 6.58
